B1: VDR (parent)
chain: VTLELSQLSMLPHLADLVSYSIQK

# Variants of: B1
# experimentDescription: protein stability index of a GFP-peptide fusion (GPS, HEK-293T) (PSI 1-6); higher = more stable;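 further: lentivirally expressed fusions sorted by FACS into six bins by GFP to DsRed ratio, PSI derived from sequencing read proportions per bin multiplied by bin number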
# runParameters: c terminus: a fixed tail appended
measuredProperty: protein stability index
// no unit string in output, number only

Please review the entries below; each comes with its answer.
In plain terms, M10Y has a documented protein stability index of 2.33

variant S9D , protein stability index observed: 2.83

Quick note, protein stability index for L8P landed at 2.33

The recorded protein stability index for entry L11T equals 2.73

Next:
Given item L17Q , the value recorded as its protein stability index is 2.42

For record L8S the listed protein stability index is 2.16
